Origin of the recorded values: the supplement of paper PMC11208160

# protocol: recombinant UMI read abundance after kanamycin selection (control-corrected) (log10(CPM+1)); higher = more efficient recombination; extreme values may be limits of the assay; sequences stand for … in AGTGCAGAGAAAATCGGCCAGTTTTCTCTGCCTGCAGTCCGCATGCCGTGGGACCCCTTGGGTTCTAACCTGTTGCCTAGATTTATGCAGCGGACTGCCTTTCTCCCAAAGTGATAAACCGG…AGGTTGGTTTCACT; site = the 11-nt donor;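 further: IS621 bridge recombinase in Escherichia coli cells against a fixed T5 target plasmid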
Rule: yes for recombinant UMI read abundance (log10) not less than 0.009, no for anything less.

Below are worked cases with known answers.
| sequence-record | class-assignment |
| --- | --- |
| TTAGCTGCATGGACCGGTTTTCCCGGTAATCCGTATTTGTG (site TTACCTGCTCA) | no |
| CGCTAATCATGGACCGGTTTTCCCGGTAATCCGTATTTGGG (site CGCTAATCTCC) | yes |
| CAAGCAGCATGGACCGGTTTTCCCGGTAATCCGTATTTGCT (site CGAGCAGCTAG) | no |
| TCCTTACCATGGACCGGTTTTCCCGGTAATCCGTATTTGGA (site TCCTTACCTTC) | no |

Query block: Please check the record TGGTAAGCATGGACCGGTTTTCCCGGTAATCCGTATTTGGC (site TGGTAAGCTGC) and state if its recombinant UMI read abundance (log10) is at or above 0.009.
Result block: yes
